B1: C9orf25 (parent)
chain: LARKGSLKNGSMGSPVNQQPKKNN

# Variants of: B1
# TEST: protein stability index of a GFP-peptide fusion (GPS, HEK-293T) (PSI 1-6); higher = more stable;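 also: lentivirally expressed fusions sorted by FACS into six bins by GFP to DsRed ratio, PSI derived from sequencing read proportions per bin multiplied by bin number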
# TEST SETTINGS: c terminus: a fixed tail appended
Some variants, each annotated with its measured protein stability index.

# RESIDUES, protein stability index
records = [
    ("LARKGPLKNGSMGSPVNQQPKKNN", 4.59),
    ("LARKGSLKNGSMGSPVNQQPKKNF", 3.96),
    ("LARKGSLNNGSMGSPVNQQPKKNN", 5.17),
    ("LARKGSLKNGSMGSPVKQQPKKNN", 4.47),
    ("LARKGSLKNGSMQSPVNQQPKKNN", 4.99),
    ("LARKGSLKNGSMGSPVPQQPKKNN", 4.95),
    ("LARKGSLKNPSMGSPVNQQPKKNN", 4.86),
    ("LARKGSLKNGSMGSPVNQQPAKNN", 4.7),
    ("LARTGSLKNGSMGSPVNQQPKKNN", 5),
    ("LARKGSLKNGSMGSPWNQQPKKNN", 4.01),
    ("LARKGSLCNGSMGSPVNQQPKKNN", 4.32),
    ("LARKGSLPNGSMGSPVNQQPKKNN", 4.71),
    ("LARKGSLANGSMGSPVNQQPKKNN", 4.55),
    ("LARKGSCKNGSMGSPVNQQPKKNN", 5.02),
]
